- test.system: T1, recombinant soluble recombinant human α5β1 integrin-Fc fusion protein (human, UniProt P08648 42-995; P05556 21-728, limits assumed)
- T1 construct: Coated on ELISA plates at 1.0 µg/ml; The construct's limits and the Fc are not described; not shown: Fc part
- T1 sequence (P08648 42-995 limits assumed, chain 1 of 2): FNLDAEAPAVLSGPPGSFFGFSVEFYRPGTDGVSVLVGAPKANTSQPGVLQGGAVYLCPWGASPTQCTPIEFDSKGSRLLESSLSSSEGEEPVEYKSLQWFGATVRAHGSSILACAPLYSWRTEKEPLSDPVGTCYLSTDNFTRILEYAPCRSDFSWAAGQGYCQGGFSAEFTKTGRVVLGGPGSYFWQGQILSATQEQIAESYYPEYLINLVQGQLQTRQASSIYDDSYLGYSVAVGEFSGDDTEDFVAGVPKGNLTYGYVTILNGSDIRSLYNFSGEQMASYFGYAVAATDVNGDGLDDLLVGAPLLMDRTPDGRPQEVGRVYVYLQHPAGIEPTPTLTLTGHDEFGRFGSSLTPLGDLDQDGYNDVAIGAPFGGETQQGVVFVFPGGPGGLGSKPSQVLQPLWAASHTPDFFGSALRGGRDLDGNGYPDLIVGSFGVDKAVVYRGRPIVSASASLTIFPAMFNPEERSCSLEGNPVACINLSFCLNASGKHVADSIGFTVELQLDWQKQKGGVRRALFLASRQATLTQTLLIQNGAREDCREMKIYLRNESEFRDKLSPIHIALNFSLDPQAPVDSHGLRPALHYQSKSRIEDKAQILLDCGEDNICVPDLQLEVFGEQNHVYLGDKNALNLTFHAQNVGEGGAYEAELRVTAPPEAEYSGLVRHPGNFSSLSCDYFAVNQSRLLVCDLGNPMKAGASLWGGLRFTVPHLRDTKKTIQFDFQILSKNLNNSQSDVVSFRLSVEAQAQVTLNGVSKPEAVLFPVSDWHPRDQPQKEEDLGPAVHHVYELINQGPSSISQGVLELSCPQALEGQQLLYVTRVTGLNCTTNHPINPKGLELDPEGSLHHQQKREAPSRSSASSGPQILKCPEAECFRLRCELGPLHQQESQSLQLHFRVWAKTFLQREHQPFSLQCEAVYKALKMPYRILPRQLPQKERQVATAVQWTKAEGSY
- T1 sequence (P05556 21-728 limits assumed, chain 2 of 2): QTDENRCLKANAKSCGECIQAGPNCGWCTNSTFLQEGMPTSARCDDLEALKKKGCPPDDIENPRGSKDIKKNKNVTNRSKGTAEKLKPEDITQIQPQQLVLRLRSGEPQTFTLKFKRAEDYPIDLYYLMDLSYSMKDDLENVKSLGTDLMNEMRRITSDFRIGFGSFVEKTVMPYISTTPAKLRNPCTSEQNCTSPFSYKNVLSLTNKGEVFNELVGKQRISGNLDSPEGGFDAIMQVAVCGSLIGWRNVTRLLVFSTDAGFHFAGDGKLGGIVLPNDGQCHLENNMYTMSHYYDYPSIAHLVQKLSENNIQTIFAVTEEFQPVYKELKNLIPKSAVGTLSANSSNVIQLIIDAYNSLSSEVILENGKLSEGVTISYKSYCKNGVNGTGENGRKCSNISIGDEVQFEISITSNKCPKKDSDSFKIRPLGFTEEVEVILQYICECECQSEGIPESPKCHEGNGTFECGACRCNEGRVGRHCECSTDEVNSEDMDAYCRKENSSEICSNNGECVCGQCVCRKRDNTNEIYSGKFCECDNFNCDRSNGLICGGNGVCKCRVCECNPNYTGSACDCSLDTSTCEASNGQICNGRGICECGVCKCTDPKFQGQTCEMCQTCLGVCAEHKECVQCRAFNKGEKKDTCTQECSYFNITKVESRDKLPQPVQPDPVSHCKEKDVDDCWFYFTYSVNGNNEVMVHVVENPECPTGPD
- test: competition ELISA: plate coated with human α5β1 integrin-Fc, unlabelled antibody titrated against biotinylated murine IIA1, streptavidin-HRP, O.D. 450
- Procedure: Wells of 96-well ELISA plates (Nunc-Immuno MaxiSorp plate, NalgeNunc, Naperville, Ill.) were coated with 100 μl of 1.0 μg/ml recombinant soluble recombinant human α5β1 integrin-Fc fusion protein in 0.2 M sodium carbonate-bicarbonate buffer (pH 9.4) overnight at 4° C. […] Absorbance was read at 450 nm using a VERSAmax microplate reader (Molecular Devices, Menlo Park, Calif.). Final competitor concentration in the reaction was plotted versus absorbance at 450 nm.
value.type: IC50 (read off the curve)

INSERT INTO assay_data (binder, value_type, observed_measurement) VALUES
  ('IIA1, mouse anti-human α5β1 integrin antibody (antibody, V domains shown, Mouse monoclonal antibody (Pharmingen); also called murine IIA1; M100) VH: QVQLKESGPGLVAPSQSLSITCTISGFSLTDYGVHWVRQPPGKGLEWLVVIWSDGSSTYNSALKSRMTIRKDNSKSQVFLIMNSLQTDDSAMYYCARHGTYYGMTTTGDALDYWGQGTSVTVSS VL: QIVLTQSPAIMSASLGERVTMTCTASSSVSSNYLHWYQQKPGSAPNLWIYSTSNLASGVPARFSGSGSGTSYSLTISSMEAEDAATYYCHQYLRSPPTFGGGTKLEIKR', 'IC50 (read off the curve)', '~0.02 µg'),
  ('M200 chimeric anti-α5β1 integrin antibody (antibody, human IgG4, kappa, V domains shown, Mouse/human chimeric IgG4/kappa; also called 200-M; 200-4 EOS) VH: QVQLKESGPGLVAPSQSLSITCTISGFSLTDYGVHWVRQPPGKGLEWLVVIWSDGSSTYNSALKSRMTIRKDNSKSQVFLIMNSLQTDDSAMYYCARHGTYYGMTTTGDALDYWGQGTSVTVSS VL: QIVLTQSPAIMSASLGERVTMTCTASSSVSSNYLHWYQQKPGSAPNLWIYSTSNLASGVPARFSGSGSGTSYSLTISSMEAEDAATYYCHQYLRSPPTFGGGTKLEIKR', 'IC50 (read off the curve)', '~0.02 µg'),
  ('HuM200, humanized M200 with IgG4 constant region (antibody, V domains shown, Humanized IgG4; also called HuM200-G4; huM200-G4) VH: EVQLVESGGGLVQPGGSLRLSCAASGFSLTDYGVHWVRQAPGKGLEWLVVIWSDGSSTYNSALKSRMTISKDNAKNTVYLQMNSLRAEDTAVYYCARHGTYYGMTTTGDALDYWGQGTLVTVSS VL: EIVLTQSPATLSLSPGERATLSCTASSSVSSNYLHWYQQKPGQAPRLLIYSTSNLASGVPARFSGSGSGTSYTLTISSLEPEDFAVYYCHQYLRSPPTFGGGTKVEIKR', 'IC50 (read off the curve)', '~0.02 µg'),
  ('HuM200-g2 m3G, humanized M200 with IgG2 constant region (antibody, V domains shown, Same variable domains as HuM200 with a constant region of IgG2) VH: EVQLVESGGGLVQPGGSLRLSCAASGFSLTDYGVHWVRQAPGKGLEWLVVIWSDGSSTYNSALKSRMTISKDNAKNTVYLQMNSLRAEDTAVYYCARHGTYYGMTTTGDALDYWGQGTLVTVSS VL: EIVLTQSPATLSLSPGERATLSCTASSSVSSNYLHWYQQKPGQAPRLLIYSTSNLASGVPARFSGSGSGTSYTLTISSLEPEDFAVYYCHQYLRSPPTFGGGTKVEIK', 'IC50 (read off the curve)', '~0.02 µg');

These measurements were taken from patent US20050163769A1.
